- PROTOCOL DESCRIPTION: Determination of the solubility of compounds in water
- Assay type: physicochemical
- RUN PARAMETERS: 37 °C, pH 7.4, aqueous buffer, thermodynamic from solid
RESULT TYPE: solubility at 24 h (µM)
Numbers only, in µM.

Req: solubility at 24 h lookup needed for O=C(CCCN1CCC2(CC1)C(=O)NCN2c1ccccc1)N(CC1CCCCC1)c1ccccc1 [Compound 36l] , thanks.
Resp: 630

---

- PROTOCOL DESCRIPTION: Pharmacokinetic study in vivo
- Design: species or system ICR mice
- RUN PARAMETERS: male, ICR, mouse, plasma, ip, 100 mg/kg
RESULT TYPE: Cmax (ng/mL)
Answers are plain numbers, in ng/mL.

Req: Cmax lookup needed for O=C(CCCN1CCC2(CC1)C(=O)NCN2c1ccccc1)N(CC1CCCCC1)c1ccccc1 [Compound 36l] , thanks.
Resp: 15500
